Test system: NCI-H23 lung
Measurement Notes: NCI-60 one-dose screen, 48 h
Condition: 10 µM unless noted
About 83,000 compounds went through this panel and 20% of them were active in at least one assay; those are over-represented in the sample as a whole. Calls of active or inactive are those of the source. Rule for the calls: active = growth percent below 10; inactive = the rest.
Labels: active, inactive

[[record]]
mol_smiles = "N#Cc1cc(-c2ccc3ncnc(N4CCc5cc(F)c(Cl)cc54)c3c2)cnc1N"
assigned_label = "inactive"

[[record]]
mol_smiles = "COc1ccc(-c2nc3ccc(-c4nnc(SCc5ccccc5)o4)cc3[nH]2)cc1OC"
assigned_label = "inactive"

[[record]]
mol_smiles = "COc1ccc(C(=O)c2cc(C(C)=O)c3c(C)cc(C)cn23)cc1"
assigned_label = "inactive"

[[record]]
mol_smiles = "O=C(Nc1ccc(-c2ccc3c(c2)NC(=O)/C3=C\\c2ccc[nH]2)cc1)Nc1cccc(Cl)c1"
assigned_label = "active"

[[record]]
mol_smiles = "N/C(=N\\c1nc2ccccc2s1)NC(=O)Nc1ccccc1[N+](=O)[O-]"
assigned_label = "inactive"


----------
Test system: MDA-MB-231 breast
Measurement Notes: NCI-60 one-dose screen, 48 h (100 = growth as untreated, 0 = no growth, -100 = all killed)
Condition: 10 µM unless noted
Compounds without any hit were thinned out: in the full panel of roughly 83,000, 20% have a hit.
Observed Property: growth (%)

[[record]]
molecule = "COc1cc(CNC(=O)C[C@H](C)CCC=C(C)C)ccc1OCc1cn(-c2ccc(Cl)cc2Cl)nn1"
target_of_assay = "MDA-MB-231 breast"
number = 59.7

[[record]]
molecule = "C=CC(=O)N1CCN(c2ccc3nc4c(nc3c2C(F)(F)F)C(=O)c2ncccc2C4=O)CC1"
target_of_assay = "MDA-MB-231 breast"
number = -13.6

[[record]]
molecule = "Cn1cc(-c2cc(N)n3nc(-c4c[nH]c5ccccc45)cc3n2)c2cc(Br)ccc21"
target_of_assay = "MDA-MB-231 breast"
number = -89.3

[[record]]
molecule = "CN1CCN(C(=O)CCN(C(=O)Oc2cc3c(c4ccccc24)[C@H](CCl)CN3C(=O)c2cc3cc(OCCCN4CCC4)ccc3[nH]2)[C@H]2CCSSC2)CC1"
target_of_assay = "MDA-MB-231 breast"
number = -89.6

[[record]]
molecule = "C#CCN(C)CCCOc1ccc(N(CC)C(=O)c2cc(C(C)C)c(O)cc2O)cc1Cl"
target_of_assay = "MDA-MB-231 breast"
number = -45.3

[[record]]
molecule = "Cn1cc(-c2cc(N)n3nc(-c4c[nH]c5ccc(Cl)cc45)cc3n2)c2cccnc21"
target_of_assay = "MDA-MB-231 breast"
number = -82.3

[[record]]
molecule = "CNS(=O)(=O)N1CCc2c(Br)c3c(c(OC)c2C1CCc1ccccc1)OCO3 (configuration not stated)"
target_of_assay = "MDA-MB-231 breast"
number = -62.8

[[record]]
molecule = "COc1ccc2[nH]cc(-c3cc4nc(-c5cn(C)c6ncc(Br)cc56)cc(N)n4n3)c2c1"
target_of_assay = "MDA-MB-231 breast"
number = -83.8

[[record]]
molecule = "CC1CCc2c(sc3nc(SCC(=O)c4cccc(Br)c4)n(-c4ccccc4)c(=O)c23)C1 (configuration not stated)"
target_of_assay = "MDA-MB-231 breast"
number = 32.3

[[record]]
molecule = "O=C(/C=C1\\C(=O)N(Cc2ccccc2)c2ccccc21)c1cc2ccccc2oc1=O"
target_of_assay = "MDA-MB-231 breast"
number = 81

[[record]]
molecule = "CC[C@]12C=CCN3CC[C@@]4(c5ccc(OC)cc5N(C)[C@H]4[C@@](O)(C(=O)OC)[C@@H]1OC(=O)CCC[P+](c1ccc(OC)cc1)(c1ccc(OC)cc1)c1ccc(OC)cc1)[C@@H]32"
target_of_assay = "MDA-MB-231 breast"
number = -97

[[record]]
molecule = "COc1c(B(O)O)cc(F)cc1-c1nc2c(F)cc3[nH]ncc3c2c2c1CCCC2"
target_of_assay = "MDA-MB-231 breast"
number = 3.96

[[record]]
molecule = "COc1ccc2[nH]c(O)c(N=Nc3nc(-c4ccccc4)cs3)c2c1"
target_of_assay = "MDA-MB-231 breast"
number = 60.1

[[record]]
molecule = "Cc1ccc(/C=C/C(=O)c2ccc(S(=O)(=O)NCCNc3nc(N(C)C)nc(N4CCOCC4)n3)cc2)cc1"
target_of_assay = "MDA-MB-231 breast"
number = 85

[[record]]
molecule = "O=C(Cn1c(-c2ccccc2)nc2ccccc21)N=Nc1c(O)[nH]c2ccc(Br)cc12"
target_of_assay = "MDA-MB-231 breast"
number = -56.8

[[record]]
molecule = "CC(Nc1ncnc2ccc(-c3ccc4oc(N)nc4c3)cc12)c1ccccc1 (configuration not stated)"
target_of_assay = "MDA-MB-231 breast"
number = -38

[[record]]
molecule = "Cc1ccc(-c2cc(-c3ccccc3)[nH]c(=O)c2C#N)cc1"
target_of_assay = "MDA-MB-231 breast"
number = 83.8

[[record]]
molecule = "Nc1ccc(-c2ccc3ncnc(N4CCc5cc(F)c(Cl)cc54)c3c2)cn1"
target_of_assay = "MDA-MB-231 breast"
number = 18.4

[[record]]
molecule = "O=C(CSc1nnc(-c2ccc(-c3nc4ccc(Cl)cc4[nH]3)cc2)o1)Nc1ccc(Br)cc1"
target_of_assay = "MDA-MB-231 breast"
number = -76

[[record]]
molecule = "CCCCCCCCCc1ccc(C(=O)Nc2cc(C)ccc2C(=O)OC)cc1"
target_of_assay = "MDA-MB-231 breast"
number = 103

[[record]]
molecule = "Cn1cc(-c2cc(N)n3nc(-c4c[nH]c5ccc(F)cc45)cc3n2)c2cc(Br)cnc21"
target_of_assay = "MDA-MB-231 breast"
number = 13.2

[[record]]
molecule = "O=C(CSc1nnc(-c2ccc(-c3nc4ccc(Cl)cc4[nH]3)cc2)o1)Nc1ccccc1"
target_of_assay = "MDA-MB-231 breast"
number = -52

[[record]]
molecule = "Cc1ccc(C2CC(c3ccc(NC(=O)Nc4ccccc4)cc3)=NN2c2ccc(S(N)(=O)=O)cc2)cc1 (configuration not stated)"
target_of_assay = "MDA-MB-231 breast"
number = -90.8

[[record]]
molecule = "COc1ccc(NC(=O)Cn2c(/C=C/c3ccc([N+](=O)[O-])cc3)nc3ccccc3c2=O)cc1"
target_of_assay = "MDA-MB-231 breast"
number = -18.4

[[record]]
molecule = "N#C/C(=C/c1ccc(Cl)cc1)c1nnc(NC(=O)c2ccc(-n3c(=O)[nH]c4ccccc4c3=O)cc2)s1"
target_of_assay = "MDA-MB-231 breast"
number = -5.08

[[record]]
molecule = "COc1ccc(/C=C/c2nc3ccccc3c(=O)n2CC(=O)Nc2ccccc2)cc1"
target_of_assay = "MDA-MB-231 breast"
number = -19.5

[[record]]
molecule = "COc1ccc2[nH]cc(-c3cc4nc(-c5cn(C)c6ncccc56)cc(N)n4n3)c2c1"
target_of_assay = "MDA-MB-231 breast"
number = -58.4

[[record]]
molecule = "NS(=O)(=O)c1cccc(Nc2nc(SCC(=O)c3ccc(F)cc3)nc3ccccc23)c1"
target_of_assay = "MDA-MB-231 breast"
number = 7.12

[[record]]
molecule = "CN(C)c1nc(NCCNS(=O)(=O)c2ccc(C(=O)/C=C/c3ccc(Cl)cc3)cc2)nc(N2CCOCC2)n1"
target_of_assay = "MDA-MB-231 breast"
number = 15.7

[[record]]
molecule = "COc1ccc2oc(=O)c(-c3csc(N/N=C(\\C)c4cc(OC)c(OC)c(OC)c4)n3)cc2c1"
target_of_assay = "MDA-MB-231 breast"
number = 86.8

[[record]]
molecule = "COc1cc(CNC(=O)C[C@H](C)CCC=C(C)C)ccc1OCc1cn(-c2cccc(C(F)(F)F)c2)nn1"
target_of_assay = "MDA-MB-231 breast"
number = 87.2

[[record]]
molecule = "C=CC[n+]1cccc2c3ccccc3ccc21"
target_of_assay = "MDA-MB-231 breast"
number = 77.6

[[record]]
molecule = "O=C1/C(=C/c2cnc(-c3ccccc3)s2)SC(=S)N1Cc1ccc2c(c1)OCO2"
target_of_assay = "MDA-MB-231 breast"
number = 76.9

[[record]]
molecule = "Nc1cc(-c2c[nH]c3ccc(Br)cc23)nc2cc(-c3c[nH]c4ccccc34)nn12"
target_of_assay = "MDA-MB-231 breast"
number = -83.3

[[record]]
molecule = "CN(C)CCCNC(=S)Nc1ccc(/C=C/c2ccc(Cl)cc2)cc1"
target_of_assay = "MDA-MB-231 breast"
number = -100

[[record]]
molecule = "CCCCNC(=S)Nc1ccc(OCc2nc3ccc(Cl)cc3[nH]2)cc1"
target_of_assay = "MDA-MB-231 breast"
number = 10.5

[[record]]
molecule = "O=C(N/N=C/c1ccc(Br)o1)c1[nH]c2ccc(Br)cc2c1-c1ccccc1"
target_of_assay = "MDA-MB-231 breast"
number = -73.4

